# study_system: LecB (Pseudomonas aeruginosa, UniProt Q9HYN5)
# Sequence (Q9HYN5 entry or part of it): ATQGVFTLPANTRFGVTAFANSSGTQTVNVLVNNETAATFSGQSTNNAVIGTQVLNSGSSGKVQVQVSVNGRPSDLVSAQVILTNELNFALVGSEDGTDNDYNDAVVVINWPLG
# assay_comment: ITC after […] nm illumination
# Assay type: binding
# Parameters: N-terminal 6xHis-tagged LecB
test_readout: pKd
Answers are plain numbers, as −log10 of the molar value.

Entry C[C@@H]1O[C@H](CNS(=O)(=O)c2ccc(/N=N\c3ccccc3)cc2)[C@@H](O)[C@H](O)[C@@H]1O (mixture of isomers) [photofucose-2, cis-photofucose-2] , pKd reported as 5.33

###

# study_system: LecB (Pseudomonas aeruginosa)
# assay_comment: (soak, […] Å) and ITC
# Type: binding
# Design: N-terminal 6xHis-tagged LecB (homotetramer)
test_readout: pKd
Give bare numbers, as −log10 of the molar value.

Entry C[C@@H]1O[C@H](CNS(=O)(=O)c2ccc(/N=N/c3ccccc3)cc2)[C@@H](O)[C@H](O)[C@@H]1O , pKd reported as 5.74
